- TGT: human PAH with the R408W mutation (Homo sapiens, UniProt P00439, R408W)
- Construct: expressed in transfected cells
- PROTOCOL NOTES: Cell Based Phenylalanine Flux Assay
- CONDITION SET: A375 cells expressing R408W PAH; 24 hrs with compound, then 20 µM sepiapterin and 800 µM 13C9,15N-Phenylalanine for 4 hours; 13C-Tyrosine by LC-MS; average where tested multiple times; read-out: AC50
QUANTITY MEASURED: AC50

1) CN1CCN(c2nnc(C(=O)N3CCc4[nH]cnc4C3c3cc4ccccn4n3)o2)CC1 (centres unmarked)
> 5 µM
2) Cc1c(C2c3nc[nH]c3CCN2C(=O)c2nnc(C3CC3)o2)nn2ccccc12 (centres unmarked)
1 to 5 µM
3) Cc1cccn2nc(C3c4nc[nH]c4CCN3C(=O)c3ocnc3C(F)F)cc12 (centres unmarked)
1 to 5 µM
4) Cc1ccc2cc(C3c4nc[nH]c4CCN3C(=O)c3nnc(C(C)(C)O)o3)nn2c1 (centres unmarked)
1 to 5 µM
5) Nc1ccc(N2CCc3[nH]cnc3C2c2cc3ccccn3n2)nc1 (centres unmarked)
> 5 µM

====

- TGT: human PAH with the R408W mutation (Homo sapiens, UniProt P00439, R408W)
- Construct: expressed in transfected cells
- PROTOCOL NOTES: Cell Based Phenylalanine Flux Assay
- CONDITION SET: A375 cells expressing human PAH R408W; 24 hrs compound incubation; 13C-Tyrosine by LC-MS; average where tested multiple times; read-out: AC50
Consider the following compounds and their measured AC50 readings.
QUANTITY MEASURED: AC50

1) Clc1cccn2nc([C@@H]3c4nc[nH]c4CCN3c3nnc(-c4cccnn4)o3)cc12 [Example 2198]
500 to 1000 nM
2) Cc1c(-c2ncc(C(=O)N3CCc4[nH]cnc4[C@@H]3c3cc4c(F)cccn4n3)o2)cnn1C [Example 2067]
> 5000 nM
3) FC(F)c1nnc(N2CCc3[nH]cnc3[C@@H]2c2cc3c(C4CC4)cccn3n2)o1 [Example 2166]
> 5000 nM
4) O=C(c1nnc(-c2cnn(C(F)(F)F)c2)o1)N1CCc2[nH]cnc2[C@@H]1c1cc2cccc(C(F)(F)F)n2n1 [Example 2429]
1000 to 5000 nM
5) FC(F)(F)Oc1cccn2nc([C@H]3c4nc[nH]c4CCN3c3ncccn3)cc12 [Example 2271]
> 5000 nM
6) FC(F)(F)c1cccn2nc([C@@H]3c4nc[nH]c4CCN3c3nnc(-c4ccncn4)o3)cc12 [Example 2162]
500 to 1000 nM
7) CC(C)(F)c1ncc(C(=O)N2CCc3[nH]cnc3[C@H]2c2cc3c(C(F)(F)F)cccn3n2)o1 [Example 2144]
< 500 nM

====

- TGT: human PAH with the R408W mutation (Homo sapiens, UniProt P00439, R408W)
- Construct: expressed in transfected cells
- PROTOCOL NOTES: Cell Based Phenylalanine Flux Assay
- CONDITION SET: A375 cells expressing R408W PAH; 24 hrs with compound, then 20 µM sepiapterin and 800 µM 13C9,15N-Phenylalanine for 4 hours; 13C-Tyrosine by LC-MS; average where tested multiple times; read-out: AC50
QUANTITY MEASURED: AC50

1. CC(C)(O)c1cc(C(=O)N2CCc3[nH]cnc3C2c2cc3ccccn3n2)on1 (stereo not drawn)
1 to 5 µM
2. COC(=O)N1CC(C(=O)N2CCc3[nH]cnc3[C@H]2c2cc3ccccn3n2)C1 (single isomer, unassigned)
> 5 µM
3. CC(C)(O)c1nnc(C(=O)N2CCc3[nH]cnc3C2c2cc3cccc(Cl)n3n2)o1 (stereo not drawn)
1 to 5 µM
4. c1ccn2nc(C3c4nc[nH]c4CCN3c3nnc(-c4cnccn4)o3)cc2c1 (stereo not drawn)
1 to 5 µM
5. COCCc1ccc2c(C(=O)N3CCc4[nH]cnc4C3c3cc4cccc(C(F)(F)F)n4n3)cnn2c1 (stereo not drawn)
1 to 5 µM
6. CN(C)Cc1ccc2c(C(=O)N3CCc4[nH]cnc4C3c3cc4cccc(C(F)F)n4n3)cnn2c1 (stereo not drawn)
1 to 5 µM
7. COc1cccn2nc(C3c4nc[nH]c4CCN3C(=O)c3nnc(C)o3)cc12 (stereo not drawn)
> 5 µM
8. O=C(c1cnc(-c2ncccn2)o1)N1CCc2[nH]cnc2C1c1cc2c(F)cccn2n1 (stereo not drawn)
> 5 µM
9. Cc1ncccc1-c1nnc(N2CCc3[nH]cnc3C2c2cc3ccccn3n2)o1 (stereo not drawn)
1 to 5 µM

====

Consider the following compounds and their measured AC50 readings.
- TGT: human PAH with the R408W mutation (Homo sapiens, UniProt P00439, R408W)
- Construct: expressed in transfected cells
- Sequence (P00439 1-452 R408W): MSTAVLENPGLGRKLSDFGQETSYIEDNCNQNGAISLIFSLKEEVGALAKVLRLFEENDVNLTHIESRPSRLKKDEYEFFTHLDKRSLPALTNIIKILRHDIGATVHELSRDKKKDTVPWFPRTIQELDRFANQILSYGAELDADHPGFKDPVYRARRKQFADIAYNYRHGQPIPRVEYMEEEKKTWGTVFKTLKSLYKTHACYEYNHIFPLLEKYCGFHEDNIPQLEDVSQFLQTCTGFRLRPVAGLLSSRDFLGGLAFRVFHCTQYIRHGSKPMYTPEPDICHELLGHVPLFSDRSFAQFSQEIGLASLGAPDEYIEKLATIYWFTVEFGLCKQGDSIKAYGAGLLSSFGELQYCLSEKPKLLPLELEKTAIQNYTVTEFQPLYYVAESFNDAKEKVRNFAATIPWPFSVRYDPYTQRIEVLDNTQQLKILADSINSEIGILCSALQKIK
- PROTOCOL NOTES: Cell Based Phenylalanine Flux Assay
- CONDITION SET: A375 cells expressing human R408W PAH; 24 hrs compound incubation; 13C-Tyrosine by LC-MS; average where tested multiple times; read-out: AC50
QUANTITY MEASURED: AC50

1) Cn1cc(-c2nnc(C(=O)N3CCc4[nH]cnc4[C@@H]3c3cc4ccc(Cl)cn4n3)o2)cn1
> 5000 nM
2) CC(C)(F)c1nc(C(F)F)c(C(=O)N2CCc3[nH]cnc3[C@@H]2c2cc3c(Cl)cccn3n2)o1
500 to 1000 nM
3) Cc1c(-c2nnc(C(=O)N3CCc4[nH]cnc4[C@@H]3c3cc4c(Cl)cccn4n3)o2)cnn1C
> 5000 nM
4) Cn1ccc(-c2ccc3c(C(=O)N4CCc5[nH]cnc5[C@@H]4c4cc5c(F)cccn5n4)cnn3c2)n1
> 5000 nM
5) CC(C)(F)c1nc(C(F)F)c(C(=O)N2CCc3[nH]cnc3[C@H]2c2cc3c(F)cccn3n2)o1
< 500 nM
6) Cc1cccn2nc([C@H]3c4nc[nH]c4CCN3C(=O)c3oc(-c4cncn4C)nc3C(F)F)cc12
> 5000 nM
7) CCOc1cccc2cc([C@H]3c4nc[nH]c4CCN3C(=O)c3oc(C(C)(C)O)nc3C(F)F)nn12
1000 to 5000 nM
8) O=C(c1nnc(C2CC2)o1)N1CCc2[nH]cnc2[C@@H]1c1cc2c(C(F)F)cccn2n1
1000 to 5000 nM
9) Cc1c(-c2nnc(C(=O)N3CCc4[nH]cnc4[C@H]3c3cc4c(OC(F)F)cccn4n3)o2)cnn1C
500 to 1000 nM
10) O=C(c1ocnc1C(F)F)N1CCc2[nH]cnc2[C@H]1c1cc2cccc(C(F)(F)F)n2n1
< 500 nM
11) O=C(c1nnc(-c2cnn(C(F)F)c2)o1)N1CCc2[nH]cnc2[C@@H]1c1cc2ccccn2n1
1000 to 5000 nM
12) Cc1ncccc1-c1nnc(C(=O)N2CCc3[nH]cnc3[C@H]2c2cc3cccc(C)n3n2)o1
< 500 nM
13) Cc1cccn2nc([C@H]3c4nc[nH]c4CCN3C(=O)c3nnc(-c4ncccn4)o3)cc12
1000 to 5000 nM
14) CC(C)c1nnc(C(=O)N2CCc3[nH]cnc3[C@H]2c2cc3c(C(F)(F)F)cccn3n2)o1
< 500 nM
15) Cn1cnc(-c2nnc(C(=O)N3CCc4[nH]cnc4[C@@H]3c3cc4c(F)cccn4n3)o2)c1
> 5000 nM

====

- TGT: human PAH with the R408W mutation (Homo sapiens, UniProt P00439, R408W)
- Construct: expressed in transfected cells
- PROTOCOL NOTES: Cell Based Phenylalanine Flux Assay;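 also: after compound treatment, cells received sepiapterin plus isotope-labelled Phenylalanine for 4 hours, then labelled Tyrosine in the medium was quantified, 10-point 2-fold dilution series run in duplicate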
- CONDITION SET: A375 cells expressing human PAH R408W; 24 hrs compound incubation; 13C-Tyrosine by LC-MS; average where tested multiple times; read-out: AC50
QUANTITY MEASURED: AC50

1. Cc1cccn2nc([C@@H]3c4nc[nH]c4CCN3C(=O)c3nc4ccccc4o3)cc12
< 500 nM
2. Cc1cccc2cc([C@@H]3c4nc[nH]c4CCN3c3nnc(C(F)(F)F)o3)nn12
500 to 1000 nM
3. c1cnc(N2CCc3[nH]cnc3[C@@H]2c2cc3c(C4CC4)cccn3n2)nc1
1000 to 5000 nM
4. Cc1cccnc1-c1nnc(N2CCc3[nH]cnc3[C@@H]2c2cc3cccc(C)n3n2)o1
> 5000 nM
5. FC(F)c1cccn2nc([C@@H]3c4nc[nH]c4CCN3c3cncc(Cl)n3)cc12
< 500 nM
6. Fc1cccn2nc([C@H]3c4nc[nH]c4CCN3c3ccccc3)cc12
1000 to 5000 nM
7. O=C(c1nnc(-c2ncccc2F)o1)N1CCc2[nH]cnc2[C@H]1c1cc2c(C3CC3)cccn2n1
< 500 nM
8. FC(F)Oc1cccn2nc([C@@H]3c4nc[nH]c4CCN3c3ncccn3)cc12
< 500 nM
